# measurement.target: BRAF (human)
# method.notes: radiometric filter-binding kinase assay, Kinase HotSpot
# particulars: compound 0.5 µM; ATP 10 µM
reported.endpoint: residual activity (%)
Express your answer in %, writing the number without its unit.

Worked cases, residual activity given:
{"compound": "CS(=O)c1ccc(-c2nc(-c3ccc(F)cc3)c(-c3ccncc3)[nH]2)cc1 (configuration not stated)", "reported.endpoint": "residual activity", "number": 78.8}
{"compound": "COc1cc2ncnc(Nc3ccc(F)c(Cl)c3)c2cc1OCCCN1CCOCC1", "reported.endpoint": "residual activity", "number": 95.8}
{"compound": "CCN1/C(=C/C(C)=O)Sc2ccc(OC)cc21", "reported.endpoint": "residual activity", "number": 95.3}
{"compound": "O=C1Cc2c([nH]c3ccc([N+](=O)[O-])cc23)-c2ccccc2N1", "reported.endpoint": "residual activity", "number": 99.5}
{"compound": "CSc1nc(-c2ccc(F)cc2)c(-c2ccnc(NC(C)c3ccccc3)c2)[nH]1 (configuration not stated)", "reported.endpoint": "residual activity", "number": 91.8}
{"compound": "CC(C)[C@H](CO)Nc1nc(Nc2cccc(Cl)c2)c2ncn(C(C)C)c2n1", "reported.endpoint": "residual activity", "number": 92.7}
{"compound": "Cc1ccc(NC(=O)c2ccc(CN3CCN(C)CC3)cc2)cc1Nc1nc(-c2cccnc2)cs1", "reported.endpoint": "residual activity", "number": 92.3}
{"compound": "Nc1nc(Nc2ccc(S(N)(=O)=O)cc2)nn1C(=O)c1c(F)cccc1F", "reported.endpoint": "residual activity", "number": 55}
{"compound": "Nc1nc(Nc2ccc(S(N)(=O)=O)cc2)nn1C(=S)Nc1c(F)cccc1F", "reported.endpoint": "residual activity", "number": 87.2}
{"compound": "Clc1ccc(Nc2nnc(Cc3ccncc3)c3ccccc23)cc1", "reported.endpoint": "residual activity", "number": 92.2}

So what's the measured residual activity for this one? CC(C)n1cnc2c(Nc3cccc(Cl)c3)nc(NCCO)nc21
97

Dear colleague, I am looking for the recorded residual activity of the following compound: O=C(Nc1ccc(Cl)cc1)c1ccccc1NCc1ccncc1
90

Tell me the measured residual activity of Nc1n[nH]c2nnc(-c3c(-c4ccccc4)nn4ccccc34)cc12 , please.
95.7

Fill in the blank: the reported residual activity of O=C1Nc2cc(Br)ccc2/C1=C1/Nc2ccccc2/C1=N\O is ____.
98.2

Field request: residual activity | item: CC(C)(C)c1nc2c3ccc(F)cc3c3c(=O)[nH]ccc3c2[nH]1
117

Entry Oc1ccc(-c2nc(-c3ccc(F)cc3)c(-c3ccncc3)[nH]2)cc1 has what residual activity?
60.5

State the recorded residual activity for this entry: COc1ccc(-c2cnc3c(-c4ccsc4)cnn3c2)cc1
85.9

====

# measurement.target: MAPK3 (human) (UniProt P27361)
# Sequence (P27361 whole entry, looked up): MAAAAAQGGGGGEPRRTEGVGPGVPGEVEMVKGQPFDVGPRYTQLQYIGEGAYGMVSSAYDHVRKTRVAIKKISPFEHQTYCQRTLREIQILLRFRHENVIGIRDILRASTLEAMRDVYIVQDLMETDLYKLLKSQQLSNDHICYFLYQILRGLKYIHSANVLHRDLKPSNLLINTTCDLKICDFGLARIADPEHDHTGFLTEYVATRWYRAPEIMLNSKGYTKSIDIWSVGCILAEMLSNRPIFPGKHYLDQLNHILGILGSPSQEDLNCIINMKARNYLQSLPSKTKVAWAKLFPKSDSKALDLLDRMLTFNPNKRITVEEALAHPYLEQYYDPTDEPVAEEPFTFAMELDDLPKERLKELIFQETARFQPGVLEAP
# method.notes: radiometric filter-binding kinase assay, Kinase HotSpot
# particulars: compound 0.5 µM; ATP 10 µM
Each record here notes measured residual activity.
Return type: number; implicit unit %.

Known residual activity results, listed for orientation:
{"molecule": "CC(C)(C)c1nc2c3ccc(F)cc3c3c(=O)[nH]ccc3c2[nH]1", "residual activity, %": 85.7}
{"molecule": "CC(C)[C@H](CO)Nc1nc(Nc2cccc(Cl)c2)c2ncn(C(C)C)c2n1", "residual activity, %": 104}
{"molecule": "O=C1Nc2cc(Br)ccc2/C1=C1/Nc2ccccc2/C1=N\\O", "residual activity, %": 83.3}
{"molecule": "CSc1nc(-c2ccc(F)cc2)c(-c2ccnc(NC(C)c3ccccc3)c2)[nH]1 (stereo not given)", "residual activity, %": 68}
{"molecule": "COc1cc2nccc(Oc3ccc(NC(=S)NC(=O)c4ccccc4C)cc3)c2cc1OC", "residual activity, %": 106}
{"molecule": "O=c1cc(N2CCNCC2)oc2c(-c3ccccc3)cccc12", "residual activity, %": 119}
{"molecule": "CCN1/C(=C/C(C)=O)Sc2ccc(OC)cc21", "residual activity, %": 105}
{"molecule": "NC(=O)c1ccc(N(C(N)=O)c2c(F)cccc2F)nc1-c1ccc(F)cc1F", "residual activity, %": 95.2}

Sample Nc1nc(Nc2ccc(S(N)(=O)=O)cc2)nn1C(=S)Nc1c(F)cccc1F — what was its residual activity?
78.9

Data request, read-out residual activity, for CS(=O)c1ccc(-c2nc(-c3ccc(F)cc3)c(-c3ccncc3)[nH]2)cc1 (stereo not given)
101

====

# measurement.target: HIPK1 (human)
# method.notes: radiometric filter-binding kinase assay, Kinase HotSpot
# particulars: compound 0.5 µM; ATP 10 µM
reported.endpoint: residual activity (%)
Could you give me the number in %? Just the number is fine.

{"chem.smiles": "O=C1Cc2c([nH]c3ccc([N+](=O)[O-])cc23)-c2ccccc2N1", "measurement.target": "HIPK1 (human)", "number": 98.5}
{"chem.smiles": "COc1cc2nccc(Oc3ccc(NC(=S)NC(=O)c4ccccc4C)cc3)c2cc1OC", "measurement.target": "HIPK1 (human)", "number": 100}

Let's switch to this compound now.
Look at this compound and give its reported residual activity. Nc1nc(Nc2ccc(S(N)(=O)=O)cc2)nn1C(=O)c1c(F)cccc1F
106

====

# measurement.target: STK24 (human)
# method.notes: radiometric filter-binding kinase assay, Kinase HotSpot
# particulars: compound 0.5 µM; ATP 10 µM
Output 1 for records whose residual activity is lower than 90%, 0 for records at or above 90%.

Dear reviewer, please state whether COc1cc2nccc(Oc3ccc(NC(=S)NC(=O)c4ccccc4C)cc3)c2cc1OC has residual activity strictly beneath 90%.
0

====

# measurement.target: DMPK (human) (UniProt Q09013)
# Sequence (Q09013 whole entry, looked up): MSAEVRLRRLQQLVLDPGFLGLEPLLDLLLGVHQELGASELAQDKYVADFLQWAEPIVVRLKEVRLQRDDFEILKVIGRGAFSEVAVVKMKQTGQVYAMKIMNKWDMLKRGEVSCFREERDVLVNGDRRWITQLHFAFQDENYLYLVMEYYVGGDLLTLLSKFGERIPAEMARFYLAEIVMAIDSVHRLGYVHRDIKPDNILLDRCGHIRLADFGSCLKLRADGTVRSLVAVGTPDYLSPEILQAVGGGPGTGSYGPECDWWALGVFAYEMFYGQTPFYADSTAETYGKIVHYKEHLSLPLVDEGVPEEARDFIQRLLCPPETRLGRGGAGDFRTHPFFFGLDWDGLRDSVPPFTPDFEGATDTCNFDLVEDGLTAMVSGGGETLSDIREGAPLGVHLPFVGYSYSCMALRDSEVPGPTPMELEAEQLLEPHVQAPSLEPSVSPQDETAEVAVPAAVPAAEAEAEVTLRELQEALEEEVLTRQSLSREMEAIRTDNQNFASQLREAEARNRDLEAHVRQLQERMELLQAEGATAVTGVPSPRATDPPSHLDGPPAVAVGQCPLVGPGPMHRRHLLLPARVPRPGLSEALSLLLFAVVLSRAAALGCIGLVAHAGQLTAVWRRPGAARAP
# method.notes: radiometric filter-binding kinase assay, Kinase HotSpot
# particulars: compound 0.5 µM; ATP 10 µM
reported.endpoint: residual activity (%)
Report as a plain number; the unit % is understood.

Recorded residual activity, per entry:
{"compound": "O=C(Nc1ccc(Cl)cc1)c1ccccc1NCc1ccncc1", "measurement.target": "DMPK (human) (UniProt Q09013)", "residual activity [%]": 103}
{"compound": "CC(C)[C@H](CO)Nc1nc(Nc2cccc(Cl)c2)c2ncn(C(C)C)c2n1", "measurement.target": "DMPK (human) (UniProt Q09013)", "residual activity [%]": 108}
{"compound": "CCCNC(=O)Nc1ccc(Oc2ncnc3cc(OC)c(OC)cc23)cc1Cl", "measurement.target": "DMPK (human) (UniProt Q09013)", "residual activity [%]": 100}
{"compound": "O=c1cc(N2CCNCC2)oc2c(-c3ccccc3)cccc12", "measurement.target": "DMPK (human) (UniProt Q09013)", "residual activity [%]": 96.2}

What value of residual activity has been reported for the following compound? Oc1ccc(-c2nc(-c3ccc(F)cc3)c(-c3ccncc3)[nH]2)cc1
106

Can you look up the measured residual activity of NC(=O)c1ccc(N(C(N)=O)c2c(F)cccc2F)nc1-c1ccc(F)cc1F for me?
104

====

# measurement.target: IGF1R (human)
# method.notes: radiometric filter-binding kinase assay, Kinase HotSpot
# particulars: compound 0.5 µM; ATP 10 µM
reported.endpoint: residual activity (%)
Kindly answer with a numeric value in %, unit omitted.

Recorded residual activity, per entry:
{"molecule": "CSc1nc(-c2ccc(F)cc2)c(-c2ccnc(NC(C)c3ccccc3)c2)[nH]1 (stereo unspecified)", "measurement.target": "IGF1R (human)", "number": 101}
{"molecule": "CC(C)n1cnc2c(Nc3cccc(Cl)c3)nc(NCCO)nc21", "measurement.target": "IGF1R (human)", "number": 90}
{"molecule": "O=C1Nc2cc(Br)ccc2/C1=C1/Nc2ccccc2/C1=N\\O", "measurement.target": "IGF1R (human)", "number": 103}

For Cc1cc2ncc(-c3ccccc3)nc2cc1C , what is its reported residual activity?
86.8

Name the recorded residual activity for CCN1/C(=C/C(C)=O)Sc2ccc(OC)cc21 .
98.3

Field request: residual activity | item: NC(=O)c1ccc(N(C(N)=O)c2c(F)cccc2F)nc1-c1ccc(F)cc1F
92.3

====

compounds and their reported residual activity
# measurement.target: SRPK1 (human) (UniProt Q96SB4)
# Sequence (Q96SB4 whole entry, looked up): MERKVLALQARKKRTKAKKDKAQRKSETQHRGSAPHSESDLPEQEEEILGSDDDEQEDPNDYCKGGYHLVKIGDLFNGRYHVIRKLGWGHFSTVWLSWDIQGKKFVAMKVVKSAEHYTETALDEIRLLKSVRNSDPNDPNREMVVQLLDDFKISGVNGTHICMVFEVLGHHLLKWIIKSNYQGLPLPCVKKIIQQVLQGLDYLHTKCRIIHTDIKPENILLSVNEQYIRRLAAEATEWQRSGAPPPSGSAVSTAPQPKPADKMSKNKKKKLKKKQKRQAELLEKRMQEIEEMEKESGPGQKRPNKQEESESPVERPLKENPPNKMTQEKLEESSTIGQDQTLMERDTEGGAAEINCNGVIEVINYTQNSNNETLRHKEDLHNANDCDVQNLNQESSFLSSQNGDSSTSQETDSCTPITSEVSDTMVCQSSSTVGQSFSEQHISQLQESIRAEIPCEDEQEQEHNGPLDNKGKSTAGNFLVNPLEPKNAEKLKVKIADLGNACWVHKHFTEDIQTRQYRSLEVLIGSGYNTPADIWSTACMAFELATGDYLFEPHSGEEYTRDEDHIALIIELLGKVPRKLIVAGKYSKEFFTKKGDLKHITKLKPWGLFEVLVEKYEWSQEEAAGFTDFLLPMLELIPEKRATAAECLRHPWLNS
# method.notes: radiometric filter-binding kinase assay, Kinase HotSpot
# particulars: compound 0.5 µM; ATP 10 µM
Your answer should be a plain number; it is taken to be in %.

Here's what some known entries look like.
{"compound": "COc1ccc(-c2cnc3c(-c4ccsc4)cnn3c2)cc1", "reported.endpoint": "residual activity", "number": 101}
{"compound": "O=C1Cc2c([nH]c3ccc([N+](=O)[O-])cc23)-c2ccccc2N1", "reported.endpoint": "residual activity", "number": 100}
{"compound": "Nc1nc(Nc2ccc(S(N)(=O)=O)cc2)nn1C(=S)Nc1c(F)cccc1F", "reported.endpoint": "residual activity", "number": 25.9}
{"compound": "CC(C)[C@H](CO)Nc1nc(Nc2cccc(Cl)c2)c2ncn(C(C)C)c2n1", "reported.endpoint": "residual activity", "number": 77}
{"compound": "Cc1cc2ncc(-c3ccccc3)nc2cc1C", "reported.endpoint": "residual activity", "number": 103}
{"compound": "Clc1ccc(Nc2nnc(Cc3ccncc3)c3ccccc23)cc1", "reported.endpoint": "residual activity", "number": 98.5}
{"compound": "O=C(NC(NC(=S)Nc1ccc(F)c([N+](=O)[O-])c1)C(Cl)(Cl)Cl)C(c1ccccc1)c1ccccc1 (configuration not stated)", "reported.endpoint": "residual activity", "number": 99.3}
{"compound": "O=C1Nc2cc(Br)ccc2/C1=C1/Nc2ccccc2/C1=N\\O", "reported.endpoint": "residual activity", "number": 94.9}

Can you share its residual activity? I mean this compound: O=c1cc(-c2cccc3c2Sc2ccccc2S3)oc(N2CCOCC2)c1
105

Which value of residual activity has been reported for O=c1cc(N2CCNCC2)oc2c(-c3ccccc3)cccc12 in the records?
106

Tell me the measured residual activity of NC(=O)c1ccc(N(C(N)=O)c2c(F)cccc2F)nc1-c1ccc(F)cc1F , please.
99

Entry CCN1/C(=C/C(C)=O)Sc2ccc(OC)cc21 : reported residual activity = ?
106

What value of measured residual activity is listed for O=C(Nc1ccc(Cl)cc1)c1ccccc1NCc1ccncc1 ?
109
